Assignment: determine reported solubility change mitosis (log2) for the given sequences.
Test system: HeLa Kyoto
method-description: solubility change mitosis vs G1/S (difference of NP-40 vs SDS log2 ratios) (log2 ratio difference); higher = more soluble in mitosis
Output spec: single numeric token, no unit.

# solubility change mitosis (log2) (sequence: MHQQKRQPELVEGNLPVFVFPTELIFYADDQSTHKQVLTLYNPYEFALKFKVLCTTPNKYVVVDAAGAVKPQCCVDIVIRHRDVRSCHYGVIDKFRLQVSEQSQRKALGRKEVVATLLPSAKEQQKEEEEKRLKEHLTESLFFEQSFQPENRAVSSGPSLLTVFLGVVCIAALMLPTLGDVESLVPLYLHLSVNQKLVAAYILGLITMAILRT [MOSPD1] ) is 0.352

The recorded solubility change mitosis (log2) for MGIQGGSVLFGLLLVLAVFCHSGHSLQCYNCPNPTADCKTAVNCSSDFDACLITKAGLQVYNKCWKFEHCNFNDVTTRLRENELTYYCCKKDLCNFNEQLENGGTSLSEKTVLLLVTPFLAAAWSLHP [CD59] is -0.0336

Reported solubility change mitosis (log2) of MASPGCLLCVLGLLLCGAASLELSRPHGDTAKKPIIGILMQKCRNKVMKNYGRYYIAASYVKYLESAGARVVPVRLDLTEKDYEILFKSINGILFPGGSVDLRRSDYAKVAKIFYNLSIQSFDDGDYFPVWGTCLGFEELSLLISGECLLTATDTVDVAMPLNFTGGQLHSRMFQNFPTELLLSLAVEPLTANFHKWSLSVKNFTMNEKLKKFFNVLTTNTDGKIEFISTMEGYKYPVYGVQWHPEKAPYEWKNLDGISHAPNAVKTAFYLAEFFVNEARKNNHHFKSESEEEKALIYQFSPIYTGNISSFQQCYIFD [GGH] : -0.0381

* * *

Tested on: HeLa Kyoto;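 also: synchronized HeLa Kyoto cells (double thymidine block for G1/S, nocodazole release for mitosis), protein amounts in NP-40 versus SDS lysates quantified by mass spectrometry, three biological replicates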
method-description: solubility change mitosis vs G1/S (difference of NP-40 vs SDS log2 ratios) (log2 ratio difference); higher = more soluble in mitosis
The following ranges of solubility change mitosis (log2) define the classes used here: group 1: < -0.06; group 2: ≥ -0.06 and < 0.05; group 3: ≥ 0.05

Any idea which band MPHRKERPSGSSLHTHGSTGTAEGGNMSRLSLTRSPVSPLAAQGIPLPAQLTKSNAPVHIDVGGHMYTSSLATLTKYPDSRISRLFNGTEPIVLDSLKQHYFIDRDGEIFRYVLSFLRTSKLLLPDDFKDFSLLYEEARYYQLQPMVRELERWQQEQEQRRRSRACDCLVVRVTPDLGERIALSGEKALIEEVFPETGDVMCNSVNAGWNQDPTHVIRFPLNGYCRLNSVQVLERLFQRGFSVAASCGGGVDSSQFSEYVLCREERRPQPTPTAVRIKQEPLD [KCTD15] is in? group 1

Which of the defined bands does the recorded solubility change mitosis (log2) of MAASLWMGDLEPYMDENFISRAFATMGETVMSVKIIRNRLTGIPAGYCFVEFADLATAEKCLHKINGKPLPGATPAKRFKLNYATYGKQPDNSPEYSLFVGDLTPDVDDGMLYEFFVKVYPSCRGGKVVLDQTGVSKGYGFVKFTDELEQKRALTECQGAVGLGSKPVRLSVAIPKASRVKPVEYSQMYSYSYNQYYQQYQNYYAQWGYDQNTGSYSYSYPQYGYTQSTMQTYEEVGDDALEDPMPQLDVTEANKEFMEQSEELYDALMDCHWQPLDTVSSEIPAMM [TRNAU1AP] sit within? group 1

Hey, which category is MTHSLVCPETVSRVSSVLNRNTRQFGKKHLFDQDEETCWNSDQGPSQWVTLEFPQLIRVSQLQIQFQGGFSSRRGCLEGSQGTQALHKIVDFYPEDNNSLQTFPIPAAEVDRLKVTFEDATDFFGRVVIYHLRVLGEKV [NR2C2AP] in, do you know? group 1

Record MNIMDFNVKKLAADAGTFLSRAVQFTEEKLGQAEKTELDAHLENLLSKAECTKIWTEKIMKQTEVLLQPNPNARIEEFVYEKLDRKAPSRINNPELLGQYMIDAGTEFGPGTAYGNALIKCGETQKRIGTADRELIQTSALNFLTPLRNFIEGDYKTIAKERKLLQNKRLDLDAAKTRLKKAKAAETRNSSEQELRITQSEFDRQAEITRLLLEGISSTHAHHLRCLNDFVEAQMTYYAQCYQYMLDLQKQLGSFPSNYLSNNNQTSVTPVPSVLPNAIGSSAMASTSGLVITSPSNLSDLKECSGSRKARVLYDYDAANSTELSLLADEVITVFSVVGMDSDWLMGERGNQKGKVPITYLELLN [SH3GLB1] — which class? group 2

Consider MNSNVENLPPHIIRLVYKEVTTLTADPPDGIKVFPNEEDLTDLQVTIEGPEGTPYAGGLFRMKLLLGKDFPASPPKGYFLTKIFHPNVGANGEICVNVLKRDWTAELGIRHVLLTIKCLLIHPNPESALNEEAGRLLLENYEEYAARARLLTEIHGGAGGPSGRAEAGRALASGTEASSTDPGAPGGPGGAEGPMAKKHAGERDKKLAAKKKTDKKRALRRL [UBE2S] . To which solubility change mitosis (log2) class does it belong? group 3

Category of MAELGLNEHHQNEVINYMRFARSKRGLRLKTVDSCFQDLKESRLVEDTFTIDEVSEVLNGLQAVVHSEVESELINTAYTNVLLLRQLFAQAEKWYLKLQTDISELENRELLEQVAEFEKAEITSSNKKPILDVTKPKLAPLNEGGTAELLNKEILRLQEENEKLKSRLKTIEIQATNALDEKSKLEKALQDLQLDQGNQKDFIKAQDLSNLENTVAALKSEFQKTLNDKTENQKSLEENLATAKHDLLRVQEQLHMAEKELEKKFQQTAAYRNMKEILTKKNDQIKDLRKRLAQYEPED [LZTFL1] : group 3

Which solubility change mitosis (log2) category applies to MSTKNFRVSDGDWICPDKKCGNVNFARRTSCNRCGREKTTEAKMMKAGGTEIGKTLAEKSRGLFSANDWQCKTCSNVNWARRSECNMCNTPKYAKLEERTGYGGGFNERENVEYIEREESDGEYDEFGRKKKKYRGKAVGPASILKEVEDKESEGEEEDEDEDLSKYKLDEDEDEDDADLSKYNLDASEEEDSNKKKSNRRSRSKSRSSHSRSSSRSSSPSSSRSRSRSRSRSSSSSQSRSRSSSRERSRSRGSKSRSSSRSHRGSSSPRKRSYSSSSSSPERNRKRSRSRSSSSGDRKKRRTRSRSPERRHRSSSGSSHSGSRSSSKKK [ZRANB2] here? group 2

Using the reported solubility change mitosis (log2), which band applies to MDPLFQQTHKQVHEIQSCMGRLETADKQSVHIVENEIQASIDQIFSRLERLEILSSKEPPNKRQNARLRVDQLKYDVQHLQTALRNFQHRRHAREQQERQREELLSRTFTTNDSDTTIPMDESLQFNSSLQKVHNGMDDLILDGHNILDGLRTQRLTLKGTQKKILDIANMLGLSNTVMRLIEKRAFQDKYFMIGGMLLTCVVMFLVVQYLT [GOSR2] ? group 3

Categorize the following entry: MSHGHSHGGGGCRCAAEREEPPEQRGLAYGLYLRIDLERLQCLNESREGSGRGVFKPWEERTDRSKFVESDADEELLFNIPFTGNVKLKGIIIMGEDDDSHPSEMRLYKNIPQMSFDDTEREPDQTFSLNRDLTGELEYATKISRFSNVYHLSIHISKNFGADTTKVFYIGLRGEWTELRRHEVTICNYEASANPADHRVHQVTPQTHFIS [PITHD1] group 1

Which category fits this record: MSGFSTEERAAPFSLEYRVFLKNEKGQYISPFHDIPIYADKDVFHMVVEVPRWSNAKMEIATKDPLNPIKQDVKKGKLRYVANLFPYKGYIWNYGAIPQTWEDPGHNDKHTGCCGDNDPIDVCEIGSKVCARGEIIGVKVLGILAMIDEGETDWKVIAINVDDPDAANYNDINDVKRLKPGYLEATVDWFRRYKVPDGKPENEFAFNAEFKDKDFAIDIIKSTHDHWKALVTKKTNGKGISCMNTTLSESPFKCDPDAARAIVDALPPPCESACTVPTDVDKWFHHQKN [PPA1] group 3

Class for MMPSRTNLATGIPSSKVKYSRLSSTDDGYIDLQFKKTPPKIPYKAIALATVLFLIGAFLIIIGSLLLSGYISKGGADRAVPVLIIGILVFLPGFYHLRIAYYASKGYRGYSYDDIPDFDD [TMEM230] ? group 2
